Hi, quick share: literature IC50 data for NAD-dependent protein deacetylase sirtuin-1 (Homo sapiens), several sources combined.
Enter your answer as a number in µM; do not include the unit.

- COMPOUND: "CC(=O)Nc1ccc(CN2CC(C(N)=O)Oc3ccccc32)cc1 (stereo not drawn)"
  MEASUREMENT UNITS: "µM"
  IC50: 10.4
- COMPOUND: "O=C(NNC(=S)Nc1cccc(C(F)(F)F)c1)c1nc(-c2cccc3ccccc23)no1"
  MEASUREMENT UNITS: "µM"
  IC50: 13

Please turn your attention to the following entry.
Note to self: IC50 recorded for `CC(=O)N[C@@H](C)C(=O)N[C@@H](CCCCNC(=O)CC(C)C)C(=O)N[C@@H](C)C(=O)O` was 12
